# Ki values compiled below
molecular target: JAK-3 (Homo sapiens, UniProt P52333)

Oc1cccc(C2Nc3ccccc3-c3ccnc4[nH]cc2c34)c1O (centres unmarked) | ≤ 250 nM

Need Ki of CC(C)CC1Nc2ccccc2-c2ccnc3[nH]cc1c23 (centres unmarked) , thanks.
> 2500 nM

Need Ki of COC(=O)Nc1ccc(C2c3c[nH]c4nccc(c34)-c3ccccc3N2C(=O)OC)cc1 (centres unmarked) , thanks.
250 to 2500 nM

Need Ki of Clc1cccc(C2Nc3ccccc3-c3ccnc4[nH]cc2c34)c1Cl (centres unmarked) , thanks.
> 2500 nM

Need Ki of FC(F)(F)c1ccc(C2Nc3ccccc3-c3ccnc4[nH]cc2c34)cc1 (centres unmarked) , thanks.
> 2500 nM

* * *

Target: JAK-3 (Homo sapiens)
Sequence (P52333 1-1124): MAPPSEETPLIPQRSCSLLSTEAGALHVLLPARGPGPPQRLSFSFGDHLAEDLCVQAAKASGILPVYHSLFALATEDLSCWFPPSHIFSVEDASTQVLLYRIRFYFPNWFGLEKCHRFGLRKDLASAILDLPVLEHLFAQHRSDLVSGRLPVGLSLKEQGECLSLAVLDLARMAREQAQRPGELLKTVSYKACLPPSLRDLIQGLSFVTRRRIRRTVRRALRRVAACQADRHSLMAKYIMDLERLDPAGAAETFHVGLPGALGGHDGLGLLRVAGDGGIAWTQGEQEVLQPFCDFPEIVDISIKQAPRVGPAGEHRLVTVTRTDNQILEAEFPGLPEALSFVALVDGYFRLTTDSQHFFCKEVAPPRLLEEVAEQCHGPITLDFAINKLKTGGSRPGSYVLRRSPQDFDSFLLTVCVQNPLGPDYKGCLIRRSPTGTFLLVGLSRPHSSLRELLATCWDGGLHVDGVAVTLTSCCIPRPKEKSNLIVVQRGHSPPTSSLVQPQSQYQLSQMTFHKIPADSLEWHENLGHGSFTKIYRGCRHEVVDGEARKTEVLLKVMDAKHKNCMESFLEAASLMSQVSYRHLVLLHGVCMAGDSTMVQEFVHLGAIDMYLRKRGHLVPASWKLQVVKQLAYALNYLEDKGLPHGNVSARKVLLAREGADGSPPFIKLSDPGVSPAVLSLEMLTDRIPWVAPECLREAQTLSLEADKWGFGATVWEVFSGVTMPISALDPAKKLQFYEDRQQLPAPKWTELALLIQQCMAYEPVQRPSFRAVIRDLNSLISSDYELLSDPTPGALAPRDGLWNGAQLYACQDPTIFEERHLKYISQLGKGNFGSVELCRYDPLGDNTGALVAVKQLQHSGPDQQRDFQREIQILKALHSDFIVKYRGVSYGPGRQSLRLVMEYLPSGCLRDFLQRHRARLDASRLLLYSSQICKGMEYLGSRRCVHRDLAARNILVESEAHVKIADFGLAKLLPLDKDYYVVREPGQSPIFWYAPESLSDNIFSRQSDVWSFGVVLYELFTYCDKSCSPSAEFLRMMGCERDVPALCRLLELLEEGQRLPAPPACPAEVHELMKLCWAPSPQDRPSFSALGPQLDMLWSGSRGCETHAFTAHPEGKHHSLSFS
pKi: −log10 of the molar value.
readout.kind: pKi

Below, each entry is followed by its recorded pKi result.
C1=Nc2ccccc2-c2ccnc3[nH]cc1c23 | 5.60 to 6.60
CN1C(=O)C(c2ccc(O)cc2)c2c[nH]c3ncnc(c23)-c2ccccc21 (stereo not drawn) | ≥ 6.60
CCOC(=O)C1Nc2ccccc2-c2ccnc3[nH]cc1c23 (stereo not drawn) | 5.60 to 6.60
CS(=O)(=O)Nc1ccc(C2Nc3ccccc3-c3ccnc4[nH]cc2c34)cc1 (stereo not drawn) | < 5.60
COC(=O)C1(c2ccc(O)cc2)Nc2ccccc2-c2ccnc3[nH]cc1c23 (stereo not drawn) | ≥ 6.60

Need pKi of CN(C(=O)Oc1ccc(C2Nc3ccccc3-c3ccnc4[nH]cc2c34)cc1F)c1ccccc1 (stereo not drawn) , thanks.
5.60 to 6.60

Need pKi of COc1cc(C2Nc3ccccc3-c3ccnc4[nH]cc2c34)cc(F)c1O (stereo not drawn) , thanks.
≥ 6.60

Need pKi of Brc1ccc(C2Nc3ccccc3-c3ccnc4[nH]cc2c34)cc1 (stereo not drawn) , thanks.
< 5.60

Need pKi of c1ccc(COCC2Nc3ccccc3-c3ccnc4[nH]cc2c34)cc1 (stereo not drawn) , thanks.
5.60 to 6.60

* * *

biological target: UniProt:O60674
readout.kind: Ki

Below, each entry is followed by its recorded Ki result.
CN1C(=O)C(c2ccc(O)cc2)c2c[nH]c3ncnc(c23)-c2ccccc21 (stereo not shown) | < 250 nM
COC(=O)Nc1ccc(C2Nc3ccccc3-c3ccnc4[nH]cc2c34)cc1 (stereo not shown) | > 2500 nM
Oc1ncc(C2Nc3ccccc3-c3ccnc4[nH]cc2c34)c(O)n1 (stereo not shown) | > 2500 nM
C1=Nc2ccccc2-c2ccnc3[nH]cc1c23 | 250 to 2500 nM
c1cncc(C2Nc3ccccc3-c3ccnc4[nH]cc2c34)c1 (stereo not shown) | 250 to 2500 nM
Clc1cccc(Cl)c1C1Nc2ccccc2-c2ccnc3[nH]cc1c23 (stereo not shown) | 250 to 2500 nM
Brc1ccccc1C1Nc2ccccc2-c2ccnc3[nH]cc1c23 (stereo not shown) | 250 to 2500 nM
c1ccc2c(c1)NC(c1ccncc1)c1c[nH]c3nccc-2c13 (stereo not shown) | 250 to 2500 nM

Next compound, please.
Request - read-out Ki | tested on UniProt:O60674 | compound Cc1cc(C2Nc3ccccc3-c3ccnc4[nH]cc2c34)sc1C (stereo not shown)
250 to 2500 nM

* * *

Parameter pKi, tested on JAK-3 (Homo sapiens, UniProt P52333), listed per item.
pKi: −log10 of the molar value.

c1ccc2c(c1)NC(c1ccc(-n3ccnc3)cc1)c1c[nH]c3nccc-2c13 (stereo not drawn) | 5.60 to 6.60
CCN(CC)CCOc1ccc(C2Nc3ccccc3-c3ccnc4[nH]cc2c34)cc1 (stereo not drawn) | ≥ 6.60
O=C1NC(c2ccc(O)cc2F)c2c[nH]c3nccc(c23)-c2ccccc21 (stereo not drawn) | 5.60 to 6.60

Next compound, please.
Need pKi of Cc1cc(C2Nc3ccccc3-c3ccnc4[nH]cc2c34)ccc1O (stereo not drawn) , thanks.
≥ 6.60

* * *

Parameter Ki, tested on JAK-3 (Homo sapiens), listed per item.

Below, each entry is followed by its recorded Ki result.
Cn1cc2c3c(ccnc31)-c1cccnc1NC2c1ccc(O)c(Cl)c1 (stereo not drawn) [Compound 95] | ≤ 250 nM
Oc1ccc(C2Nc3ccccc3-c3ncnc4[nH]cc2c34)cc1Cl (stereo not drawn) [Compound 81] | ≤ 250 nM
COc1cc(C2Nc3ccccc3-c3ncnc4[nH]cc2c34)ccc1O (stereo not drawn) [Compound 84] | ≤ 250 nM
COC(=O)C1(c2ccc(N)cc2)Nc2ccccc2-c2ccnc3[nH]cc1c23 (stereo not drawn) [Compound 102] | > 2500 nM
COC(=O)Nc1ccc(C2Nc3ccccc3-c3ccnc4[nH]cc2c34)cc1 (stereo not drawn) [Compound 99] | 250 to 2500 nM
N#CCC1Nc2ccccc2-c2ccnc3[nH]cc1c23 (stereo not drawn) [Compound 155] | ≤ 250 nM

Need Ki of CCOC(=O)C1(c2ccc(OC)c(F)c2)Nc2ccccc2-c2ccnc3[nH]cc1c23 (stereo not drawn) [Compound 130] , thanks.
250 to 2500 nM

Need Ki of Brc1ccccc1C1Nc2ccccc2-c2ccnc3[nH]cc1c23 (stereo not drawn) [Compound 21] , thanks.
250 to 2500 nM

Need Ki of Clc1cccc(Cl)c1C1Nc2ccccc2-c2ccnc3[nH]cc1c23 (stereo not drawn) [Compound 42] , thanks.
250 to 2500 nM

* * *

target: JAK-2 (Homo sapiens, UniProt O60674)
Sequence (O60674 whole entry): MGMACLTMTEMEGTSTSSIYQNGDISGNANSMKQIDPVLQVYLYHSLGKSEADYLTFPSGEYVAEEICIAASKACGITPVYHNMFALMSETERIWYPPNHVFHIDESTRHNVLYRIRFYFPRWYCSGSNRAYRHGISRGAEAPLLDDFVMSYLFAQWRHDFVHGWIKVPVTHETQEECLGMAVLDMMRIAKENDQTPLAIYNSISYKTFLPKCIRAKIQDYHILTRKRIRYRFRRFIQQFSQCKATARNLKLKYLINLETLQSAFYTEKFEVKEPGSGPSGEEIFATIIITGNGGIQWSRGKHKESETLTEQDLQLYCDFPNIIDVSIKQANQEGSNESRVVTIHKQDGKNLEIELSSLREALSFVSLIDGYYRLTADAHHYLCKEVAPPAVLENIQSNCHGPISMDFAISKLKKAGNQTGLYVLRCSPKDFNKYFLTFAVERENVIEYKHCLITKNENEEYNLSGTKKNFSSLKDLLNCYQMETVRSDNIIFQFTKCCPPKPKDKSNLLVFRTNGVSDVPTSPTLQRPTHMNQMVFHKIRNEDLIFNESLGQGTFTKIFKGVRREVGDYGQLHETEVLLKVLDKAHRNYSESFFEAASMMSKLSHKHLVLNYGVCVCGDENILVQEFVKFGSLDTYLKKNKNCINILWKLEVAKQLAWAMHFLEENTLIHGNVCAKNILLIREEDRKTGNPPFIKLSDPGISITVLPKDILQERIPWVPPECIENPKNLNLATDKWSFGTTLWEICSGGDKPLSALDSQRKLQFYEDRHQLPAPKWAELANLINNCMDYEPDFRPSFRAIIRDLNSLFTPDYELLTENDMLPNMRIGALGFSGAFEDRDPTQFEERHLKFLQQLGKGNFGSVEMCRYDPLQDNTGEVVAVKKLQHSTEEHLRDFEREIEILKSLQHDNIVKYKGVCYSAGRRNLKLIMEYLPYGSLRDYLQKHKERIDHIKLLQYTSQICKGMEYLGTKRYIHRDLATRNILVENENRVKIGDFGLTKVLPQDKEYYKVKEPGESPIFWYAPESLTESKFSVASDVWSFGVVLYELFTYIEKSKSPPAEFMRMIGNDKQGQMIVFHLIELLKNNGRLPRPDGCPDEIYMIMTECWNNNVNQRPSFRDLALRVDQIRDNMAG
readout.kind: Ki

Below, each entry is followed by its recorded Ki result.
CCOc1cc(C2Nc3ccccc3-c3ccnc4[nH]cc2c34)ccc1O (stereo not drawn) | 0.25 to 2.5 µM
COc1ccc(C2NC(=O)c3ccccc3-c3ccnc4[nH]cc2c34)cc1C (stereo not drawn) | > 2.5 µM
Oc1ccc(C2=Nc3ccccc3-c3ccnc4[nH]cc2c34)cc1OC(F)(F)F | < 0.25 µM
CN(C(=O)Oc1ccc(C2Nc3ccccc3-c3ccnc4[nH]cc2c34)cc1F)c1ccccc1 (stereo not drawn) | 0.25 to 2.5 µM
O=[N+]([O-])c1ccccc1C1Nc2ccccc2-c2ccnc3[nH]cc1c23 (stereo not drawn) | 0.25 to 2.5 µM
COc1ccccc1C1Nc2ccccc2-c2ccnc3[nH]cc1c23 (stereo not drawn) | 0.25 to 2.5 µM
c1ccc2c(c1)NC(c1ccc3nsnc3c1)c1c[nH]c3nccc-2c13 (stereo not drawn) | 0.25 to 2.5 µM
COC(=O)c1ccc(C2Nc3ccccc3-c3ccnc4[nH]cc2c34)cc1 (stereo not drawn) | > 2.5 µM

Next compound, please.
Request - read-out Ki | tested on JAK-2 (Homo sapiens, UniProt O60674) | compound c1ccc(C2Nc3ccccc3-c3ccnc4[nH]cc2c34)nc1 (stereo not drawn)
> 2.5 µM
